Tested on: New Zealand White rabbits
Assay procedure: Rabbit cutaneous bleeding time (CBT)
Test conditions: rabbit, Example 1; at the % P.A. inhibition given
Where a SMILES comes first, the peptide text is derived from it. Bridges are numbered along the chain shown (N, C = ends). [ ]: non-standard residue; d: D form. The star is where a group is joined. Pen = CC(C)(S)[C@H](N)C(=O)O; NH(CH2)3NH2 = NCCCN*
Measured metric: Rabbit BT Ratio
Write the number on its own, no unit after it.

Solved entries (count: 4):
N=C(N)NCCC[C@@H]1NC(=O)[C@@H](Cc2ccc(O)cc2)NC(=O)CSC[C@@H](C(=O)NCCCN)NC(=O)[C@H](CC(=O)O)NC(=O)CNC1=O [8/22] ({CH2CO}-[dY]RGDC-{NH(CH2)3NH2}; thioether N-5) has a reported Rabbit BT Ratio of 1.27

NCCCC[C@@H]1NC(=O)[C@@H](Cc2ccc(O)cc2)NC(=O)C(c2ccccc2)SC[C@@H](C(=O)O)NC(=O)[C@H](CC(=O)O)NC(=O)CNC1=O (single isomer, unassigned) has a reported Rabbit BT Ratio of 4.47

N=C(N)NCCC[C@H](NC(=O)[C@@H]1C[S+]([O-])CC(=O)N[C@H](Cc2ccc(O)cc2)C(=O)N[C@@H](CCCNC(=N)N)C(=O)NCC(=O)N[C@@H](CC(=O)O)C(=O)N1)C(N)=O (single isomer, unassigned) has a reported Rabbit BT Ratio of 1.17

CC1(C)SCC(=O)N[C@H](Cc2ccc(O)cc2)C(=O)N[C@@H](CCCCN)C(=O)NCC(=O)N[C@@H](CC(=O)O)C(=O)N[C@@H]1C(=O)O [7/47] ({CH2CO}-[dY]KGD[Pen]-OH; thioether N-5) has a reported Rabbit BT Ratio of 8.57

Below: the item to evaluate.
N=C(N)NCCC[C@@H]1NC(=O)[C@@H](Cc2ccc(O)cc2)NC(=O)C(CCCCN)SC[C@@H](C(=O)O)NC(=O)[C@H](CC(=O)O)NC(=O)CNC1=O (single isomer, unassigned) has a reported Rabbit BT Ratio of 8.17
